Values were extracted from ChEMBL document CHEMBL4043239.

Could you please report measured solubility kinetic for the items listed next?
- assay protocol: Aqueous kinetic solubility of the compound at pH 7.4
- Assay type: physicochemical
- run parameters: aqueous, read-out: Kinetic_solubility

Q: # input compound: "CN(C(=O)Cn1cc(-c2nc(C3(c4ccc(-c5cnc(N)nc5)cc4)CCC3)no2)cn1)C(C)(C)C" ; wanted: its solubility kinetic
A: 2 µg/mL

Q: Please answer likewise for "Cn1cc(-c2nc(C3(c4ccc(-c5cnc(N)nc5)cn4)CCC3)no2)cn1"
A: > 37 µg/mL

Q: Another: "Cc1cc(-c2nc(C3(c4ccc(-c5cnc(N)nc5)nc4)CCC3)no2)[nH]n1"
A: > 37 µg/mL

Q: And the next one, "CC(C)(O)Cn1cc(-c2nc(C3(c4ccc(-c5cnc(N)nc5)cc4)CCC3)no2)cn1" ?
A: > 43 µg/mL

Q: Here is the next compound: "Nc1ncc(-c2ccc(C3(c4noc(N5CCCCC5)n4)CCC3)cc2)cn1"
A: 4.1 µg/mL

* * *

- assay protocol: Volume of distribution at steady state in Sprague-Dawley rat at 1 mg/kg, iv by HPLC-MS/MS analysis
- Type: ADME, organism-based
- run parameters: in vivo, read-out: Vdss
reported property: Vd (L/kg)
Your answer should be a plain number; it is taken to be in L/kg.

Q: Consider the compound shown here: "CC(C)[C@](C)(c1ccc(-c2cnc(N)nc2)nc1)c1noc(-c2cnn(CC(C)(C)O)c2)n1" What is its recorded Vd?
A: 2

* * *

Kindly state inhibition at 5 min, 30 µM for each of the entries shown.
- measured target: UniProtKB Q12809
- Sequence (Q12809 whole entry): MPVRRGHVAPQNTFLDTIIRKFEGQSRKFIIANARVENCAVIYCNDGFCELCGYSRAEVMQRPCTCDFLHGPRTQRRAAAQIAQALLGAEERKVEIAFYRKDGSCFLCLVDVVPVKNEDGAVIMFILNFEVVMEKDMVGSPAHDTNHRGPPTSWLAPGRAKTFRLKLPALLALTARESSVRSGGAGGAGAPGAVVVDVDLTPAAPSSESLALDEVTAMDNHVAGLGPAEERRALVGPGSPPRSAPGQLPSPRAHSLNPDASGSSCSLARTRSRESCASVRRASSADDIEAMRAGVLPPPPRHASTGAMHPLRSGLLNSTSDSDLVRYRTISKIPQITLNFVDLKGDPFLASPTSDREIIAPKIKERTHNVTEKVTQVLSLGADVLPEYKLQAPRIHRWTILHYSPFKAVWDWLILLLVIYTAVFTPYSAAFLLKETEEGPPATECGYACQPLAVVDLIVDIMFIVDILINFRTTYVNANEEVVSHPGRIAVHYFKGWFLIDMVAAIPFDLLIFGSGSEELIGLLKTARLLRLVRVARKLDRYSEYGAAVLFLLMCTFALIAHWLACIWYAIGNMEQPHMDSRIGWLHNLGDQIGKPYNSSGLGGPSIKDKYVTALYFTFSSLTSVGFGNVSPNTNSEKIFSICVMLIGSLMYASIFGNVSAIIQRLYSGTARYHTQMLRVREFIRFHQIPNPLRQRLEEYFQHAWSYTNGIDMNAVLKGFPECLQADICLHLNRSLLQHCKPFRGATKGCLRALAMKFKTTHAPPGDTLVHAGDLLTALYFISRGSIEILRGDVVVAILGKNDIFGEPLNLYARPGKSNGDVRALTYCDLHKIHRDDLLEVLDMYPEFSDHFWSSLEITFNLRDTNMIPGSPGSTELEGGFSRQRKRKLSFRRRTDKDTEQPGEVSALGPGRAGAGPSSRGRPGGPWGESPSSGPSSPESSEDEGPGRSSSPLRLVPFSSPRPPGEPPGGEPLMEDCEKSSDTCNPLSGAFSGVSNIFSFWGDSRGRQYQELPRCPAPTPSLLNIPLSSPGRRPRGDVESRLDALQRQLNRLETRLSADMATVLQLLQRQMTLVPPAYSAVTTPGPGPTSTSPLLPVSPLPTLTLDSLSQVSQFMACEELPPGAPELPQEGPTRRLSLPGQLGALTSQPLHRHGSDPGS
- assay protocol: Inhibition of human ERG expressed in CHO cells at 30 uM at -70mV holding potential measured after 300 secs by IonWorks electrophysiology method relative to control
- Assay type: cell-based
- run parameters: CHO cells expressing human ERG
The answer is to be given in %; state only the numeric part.

Q: Request body: readout inhibition at 5 min, 30 µM, system UniProtKB Q12809, query "CC1(O)CCN(c2nc([C@@](C)(c3ccc(-c4cnc(N)nc4)nc3)C3CC3)no2)CC1" . Return the value.
A: 17

Q: Try this molecule too: "Nc1ncc(-c2ccc(C3(c4noc(N5CCC(O)CC5)n4)CCC3)cn2)cn1"
A: 51

Q: Next molecule up: "CN(C)C(=O)N1CCN(c2nc([C@@](C)(c3ccc(-c4cnc(N)nc4)cc3)C3CC3)no2)CC1"
A: 36

* * *

- assay protocol: Aqueous kinetic solubility of the compound at pH 7.4
- Type: physicochemical
- run parameters: aqueous, read-out: Kinetic_solubility
For each entry below, report its solubility kinetic value.

Q: Recorded solubility kinetic of "Nc1ncc(-c2ccc(C3(c4noc(-c5cnn(C6COC6)c5)n4)CCC3)cn2)cn1" , please.
A: 25 µg/mL

Q: # iterate: "Nc1ncc(-c2ccc(C3(c4noc(N5CC[C@H](O)C5)n4)CCC3)cc2)cn1"
A: > 37 µg/mL

Q: Now the same for "CC(C)(C#N)n1cc(-c2nc(C3(c4ccc(-c5cnc(N)nc5)nc4)CCC3)no2)cn1"
A: 2 µg/mL

Q: What do we get for "Cn1cc(-c2nc(C3(c4ccc(-c5cnc(N)nc5)cc4)CCC3)no2)cn1" ?
A: 14 µg/mL

Q: Follow-up item: "Nc1ncc(-c2ccc(C3(c4noc(N5CCNCC5)n4)CCC3)cc2)cn1"
A: > 37 µg/mL

Q: Consider next the compound "Nc1ncc(-c2ccc(C3(c4noc(N5CCC(CO)CC5)n4)CCC3)cc2)cn1" in the same way.
A: 14 µg/mL

Q: Now the compound "CC(C)OC1CCN(c2nc(C3(c4ccc(-c5cnc(N)nc5)cc4)CCC3)no2)CC1"
A: 16 µg/mL

Q: And what about the compound "Cc1cc(-c2nc(C3(c4ccc(-c5cnc(N)nc5)cn4)CCC3)no2)[nH]n1" ?
A: > 37 µg/mL

Q: What do you get for "CN(C(=O)Cn1cc(-c2nc(C3(c4ccc(-c5cnc(N)nc5)nc4)CCC3)no2)cn1)C(C)(C)C" ?
A: 27 µg/mL

Q: Item: "CC1(O)CCN(c2nc(C3(c4ccc(-c5cnc(N)nc5)cc4)CCC3)no2)CC1"
A: > 40 µg/mL

Q: Also "COCCn1cc(-c2nc(C3(c4ccc(-c5cnc(N)nc5)cc4)CCC3)no2)cn1" ?
A: > 41 µg/mL

Q: Lookup "CC(C)(C)NC(=O)Cn1cc(-c2nc(C3(c4ccc(-c5cnc(N)nc5)cc4)CCC3)no2)cn1"
A: 22 µg/mL

Q: Also check "CC(C)(CO)n1cc(-c2nc(C3(c4ccc(-c5cnc(N)nc5)nc4)CCC3)no2)cn1"
A: > 43 µg/mL

Q: Ok, now "Nc1ncc(-c2ccc(C3(c4noc(N5CC(O)C5)n4)CCC3)cc2)cn1"
A: > 36 µg/mL

Q: Next: "CC(C)(C)NC(=O)Cn1cc(-c2nc(C3(c4ccc(-c5cnc(N)nc5)nc4)CCC3)no2)cn1"
A: 26 µg/mL

Q: "CC(C)(O)Cn1cc(-c2nc(C3(c4ccc(-c5cnc(N)nc5)nc4)CCC3)no2)cn1" , same question.
A: > 43 µg/mL

Q: How about this compound: "Nc1ncc(-c2ccc(C3(c4noc(N)n4)CCC3)cc2)cn1"
A: 22 µg/mL

Q: What do you have for "COCCn1cc(-c2nc(C3(c4ccc(-c5cnc(N)nc5)nc4)CCC3)no2)cn1" ?
A: > 41 µg/mL

Q: Nc1ncc(-c2ccc(C3(c4noc(N5CCN(CC6CCCO6)CC5)n4)CCC3)cc2)cn1 (centres undefined) , same question.
A: 26 µg/mL
